measured-target: c-Src SH2;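 also: peptide library displayed on the E. coli surface as eCPX fusions, selected cells deep-sequenced, score is each peptide's frequency after selection divided by its frequency in the input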
test-method-notes: SH2 binding enrichment of the phosphorylated peptide, bacterial display (enrichment ratio); higher = better substrate or ligand; peptides without Tyr show the background
Recorded SH2 binding enrichment for the following sequences
value-type: SH2 binding enrichment

• IEDNKYTAREG [HCK_Y411_E410K] = 0.573
• QKINNYLTVPA [SLC9A1_Y683] = 0.376
• GREYIYVDPMQ [PDGFRA_Y574_H570R] = 0.53
• VKMLEYLGKDV [CASP5_Y74] = 0.389
• NVGGKYSYLKV [GRM3_Y478] = 2.27
• CPFNLYAAQLS [HGD_Y40_E42A_YF] = 0.537
• KANEYYPVVII [ADAMTS18_Y765_L769I] = 0.383
• SSMIDYNTLEK [MYOC_Y479_P481T] = 0.607
• SSEFHYVGGFF [CTSC_Y347_YF] = 0.376
• AEYGLYGAMVW [VSX2_Y222_R227W] = 0.419
• HDKEFYSVHNK [MET_Y1235_Y1230H_YF] = 0.395
• EVKAQYEDIAQ [KRT1_Y358] = 11.6
• SFPHEYGSQEG [RBM10_Y48_R46H_YF] = 0.643
• RTESQYQENRG [LRCH3_Y354_R350T] = 0.554
• SEPDLYYDPRG [PKP1_Y160_C161Y] = 0.524
• LFDPDYMKVIL [CYP4A22_Y104_YF] = 0.392
• REESTYLPLTS [ICAM3_Y527] = 0.787
• IVEYAYNDKAV [PUM3_Y259_I264V] = 0.719
• CYSSEYHYVGG [CTSC_Y345_Y340C] = 2.04
• KGSLPYNLILD [PKD1L2_Y406] = 3.69
• EPDSLYGCGRG [ATM_Y2019_G2023R] = 0.559
• PGVNFYFQVSA = 0.446
• HSGIFYKPESL [L2HGDH_Y103_YF] = 0.507
• SSFPDYLAAVD [GLB1_Y154_D151Y_YF] = 0.509
• LYSINYLHFGD [KDM4C_Y201_E206D] = 1.2
• DFFDLYGGQKF [PTPN11_Y66_E69Q_YF] = 0.735
• SHMVDYQPFRK [TEX37_Y25_YF] = 0.383
• HAVFIYDICHV [TWNK_Y508_V507I_YF] = 0.619
• AHLLQYNHRVK [LGALS3_Y221] = 0.874

Taken from the supplement of paper PMC10065799.
